Tested System: SpNbp2
Experiment Description: SPOT peptide array binding signal intensity (averaged, normalized) (arbitrary units (background-subtracted, floor 0; scale differs between SH3 domains)); higher = stronger binding of the SH3 domain to the peptide
Listing of recorded SPOT peptide array binding signal intensity by entry.
Measurement Label: SPOT peptide array binding signal intensity

{"columns": ["Binder", "Value Modifier", "Assay Result"],
 "data": [
  ["SRQAIPPPVPNRPGG", "≤", 0],
  ["STKKPRPPVKSKPKH", "≤", 0],
  ["SRYRRPLTLLLLKPF", "=", 374],
  ["WRPRIVPILPYITRL", "=", 55.5],
  ["KIRRSSLMIPNPQQF", "=", 33],
  ["AGKRRLPLVRFKASD", "=", 1010],
  ["GRSRLFPHSPLGRSS", "=", 419],
  ["GATNNAPTLPKRKNP", "=", 2],
  ["KWVRRPKLMTPLTFS", "=", 558]
]}
